- Tested on: soybean
- assay-protocol: Test B pre/postemergence soybean
- Assay type: in vivo, Glycine max
- measurement-setup: Postemergence, Rate 250 g/ha; scale 0 to 10

compound	Soybean plant response rating
CC(C)N(C(=O)n1oc(=O)n(CCC[Si](C)(C)C)c1=O)c1ccc(F)cc1 [Compound 461]	3
CC(C)N(C(=O)n1oc(=O)n(CNC(=O)c2ccccc2)c1=O)c1ccc(F)cc1 [Compound 445]	1
COC(CCl)n1c(=O)on(C(=O)N(c2ccc(Cl)cc2)C(C)C)c1=O (stereo not shown) [Compound 458]	2
COC(=O)C(C)n1c(=O)on(C(=O)N(c2ccc(F)cc2F)C(C)C)c1=O (stereo not shown) [Compound 463]	1

----------
This section presents compounds with their documented Plant response rating, Soybean values.
- Tested on: soybean
- assay-protocol: Test B pre/postemergence soybean
- Format: in vivo, Glycine max
- measurement-setup: Postemergence, Rate 500 g/ha; scale of 0 to 10 where 0 is no effect and 10 is complete control

compound	Plant response rating, Soybean
CC(=O)C(C)n1c(=O)on(C(=O)N(c2ccccc2)C(C)C)c1=O (stereo not shown) [Compound 576]	4
CCOCn1c(=O)on(C(=O)N(c2ccccc2)C(C)C)c1=O [Compound 563]	5
CC(C)N(C(=O)n1oc(=O)n(CC(C)[N+](=O)[O-])c1=O)c1ccccc1 (stereo not shown) [Compound 604]	1
CCOC(=O)C=C(Cn1c(=O)on(C(=O)N(c2ccccc2)C(C)C)c1=O)OCC [Compound 578]	4

----------
- Tested on: morningglory
- assay-protocol: Test B pre/postemergence morningglory
- Assay type: in vivo, Ipomoea hederacea
- measurement-setup: Preemergence, Rate 500 g/ha; scale 0 to 10, 0 is no effect, 10 is complete control
- Method: […] At the same time, these crop and weed species were also treated with postemergence applications of test chemicals formulated in the same manner. […] Treated plants and controls were maintained in a greenhouse for twelve to sixteen days, after which all species were compared to controls and visually evaluated. […]
endpoint: Morningglory plant response rating

molecule	endpoint-result
CC(C)N(C(=O)n1oc(=O)n(C(C)CCl)c1=O)c1ccc(F)cc1F (stereo not shown)	7
COC(CCl)n1c(=O)on(C(=O)N(c2ccc(Cl)cc2)C(C)C)c1=O (stereo not shown)	0
COC(=O)C(C)n1c(=O)on(C(=O)N(c2ccc(F)cc2F)C(C)C)c1=O (stereo not shown)	0
CC(C)C(=O)Cn1c(=O)on(C(=O)N(c2ccc(Cl)cc2)C(C)C)c1=O	0

----------
This section presents compounds with their documented Plant response rating, Blackgrass values.
- System: blackgrass
- assay-protocol: Test B pre/postemergence blackgrass
- Format: in vivo, Alopecurus myosuroides
- measurement-setup: Postemergence, Rate 62 g/ha; scale 0 to 10, 0 is no effect, 10 is complete control

compound	Plant response rating, Blackgrass
CCC(C)n1c(=O)on(C(=O)N(c2ccc(F)cc2)C(C)C)c1=O (stereo not shown) [Compound 751]	6
C#CCCn1c(=O)on(C(=O)N(c2ccc(F)cc2F)C(C)C)c1=O [Compound 744]	5
Cc1nc(C(C)n2c(=O)on(C(=O)N(c3ccccc3)C(C)C)c2=O)sc1C (stereo not shown) [Compound 756]	0
CCOC(Cn1c(=O)on(C(=O)N(c2ccccc2)C(C)C)c1=O)OCC [Compound 632]	0

----------
This section presents compounds with their documented Crabgrass plant response rating values.
- System: crabgrass
- assay-protocol: Test B pre/postemergence crabgrass
- Format: in vivo, Digitaria sanguinalis
- measurement-setup: Rate 62 g/ha, Postemergence; scale of 0 to 10 where 0 is no effect and 10 is complete control
endpoint: Crabgrass plant response rating

compound	endpoint-result
C=CC[Si](C)(C)Cn1c(=O)on(C(=O)N(c2ccc(F)cc2)C(C)C)c1=O	1
Cc1cnn(C)c1-n1c(=O)on(C(=O)N(c2ccc(F)cc2)C(C)C)c1=O	0
CC(C)N(C(=O)n1oc(=O)n(Cc2cccs2)c1=O)c1ccccc1	0
CC(C)N(C(=O)n1oc(=O)n(C2CCCCC2C(F)(F)F)c1=O)c1ccc(F)cc1 (centres unmarked)	0
CC(C)N(C(=O)n1oc(=O)n(C2CCC2)c1=O)c1ccc(Cl)cc1	0
Cc1nn(C)c(C)c1-n1c(=O)on(C(=O)N(c2ccccc2)C(C)C)c1=O	5
CC(C)N(C(=O)n1oc(=O)n(C2CCCCC2)c1=O)c1ccc(F)cc1	2
CC(C)N(C(=O)n1oc(=O)n(C2CCCCC2)c1=O)c1ccc(Cl)cc1	1
